biological target: cathepsin L (Rattus norvegicus); construct: extracted from a rat liver and completely purified; from tissue; host or cells: rat liver; assay: Determination of inhibition rate against cathepsin L; format: biochemical; details: IC50 against cathepsin B divided by IC50 against cathepsin L
Sequence (P07154 114-288 limits assumed): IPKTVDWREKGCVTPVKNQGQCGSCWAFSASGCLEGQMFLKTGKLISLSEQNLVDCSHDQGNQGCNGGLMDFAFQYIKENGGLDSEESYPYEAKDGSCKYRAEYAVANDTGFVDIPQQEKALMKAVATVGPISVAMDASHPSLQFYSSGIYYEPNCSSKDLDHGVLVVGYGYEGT
Sequence (P07154 291-334 limits assumed): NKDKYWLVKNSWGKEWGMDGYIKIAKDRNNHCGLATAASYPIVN
Counter-ions that a name gives are not always drawn.

COMPOUND | LT_GT_EQ | B/L
NCCCC[C@H](NC(=O)[C@H]1O[C@@H]1C(=O)N[C@@H](Cc1ccccc1)C(=O)NCCc1ccccc1)C(=O)Nc1cccc2ccccc12 [Example 24, hydrochloride] | = | 70000
CN(C)C(=O)[C@H](Cc1ccccc1)NC(=O)[C@H]1O[C@@H]1C(=O)N[C@@H](CCCCN)C(=O)Nc1ccccc1 [Example 65, hydrochloride] | > | 333
CC(=O)NCCCC[C@H](NC(=O)[C@H]1O[C@@H]1C(=O)N[C@@H](Cc1ccccc1)C(=O)NCCc1ccccc1)C(=O)Nc1cccc2ccccc12 | = | 17500

* * *

Biological target: cathepsin L (Rattus norvegicus)
Construct: extracted from a rat liver and completely purified; from tissue; host or cells: rat liver
Test: Determination of inhibition rate against cathepsin L
Assay type: biochemical
Settings: IC50 against cathepsin B divided by IC50 against cathepsin L
Method: Determination of inhibition rate against cathepsin L, B and H […] Each cathepsin was diluted with a diluent (0.1% Brij 35) to adjust its concentration to 0.3 U (0.1 U: a concentration at which 1.0 nmol of MCA is released per minute at 37° C.). To 500 μl of this solution, were added 250 μl of an activator/buffer (340 mM sodium acetate, 60 mM acetic acid, 4 mM disodium EDTA; pH 5.5). […]
Where a name gives a salt, the structure may show the parent alone.

COMPOUND | LT_GT_EQ | B/L
NCCCC[C@H](NC(=O)[C@H]1O[C@@H]1C(=O)N[C@@H](Cc1ccccc1)C(=O)NCCc1ccccc1)C(=O)Nc1ccc(Cl)c2ccccc12 [Example 49, hydrochloride] | = | 1176
NCCCCCCCCNC(=O)[C@H](Cc1ccccc1)NC(=O)[C@H]1O[C@@H]1C(=O)O [Preparation Example 61, reference compound] | = | 28.4
NCCCC[C@H](NC(=O)[C@H]1O[C@@H]1C(=O)N[C@@H](Cc1ccccc1)C(N)=O)C(=O)Nc1cccc2ccccc12 [Example 14, hydrochloride] | > | 667
CC(C)NC(=O)[C@H](Cc1ccccc1)NC(=O)[C@H]1O[C@@H]1C(=O)N[C@@H](CCCCN)C(=O)Nc1ccccc1 [Example 61, hydrochloride] | > | 3571
NCCCC[C@H](NC(=O)[C@H]1O[C@@H]1C(=O)N[C@H](Cc1ccccc1)C(=O)NCCc1ccccc1)C(=O)Nc1cccc2ccccc12 [Example 53, hydrochloride] | = | 333

* * *

Where a name gives a salt, the structure may show the parent alone.
Parameter 'readout' = IC50; parameter 'system' = cathepsin L (Rattus norvegicus).

MOLECULE | UNIT | IC50
NCCCC[C@H](NC(=O)[C@H]1O[C@@H]1C(=O)N[C@@H](Cc1ccccc1)C(=O)NC1CCCCC1)C(=O)Nc1ccccc1 [Example 69, hydrochloride] | nM | 8.5
NCCCC[C@H](NC(=O)[C@H]1O[C@@H]1C(=O)N[C@@H](Cc1ccccc1)C(=O)NCc1ccccc1)C(=O)Nc1cccc2ccccc12 [Example 26, hydrochloride] | nM | 0.4
NCCCC[C@H](NC(=O)[C@H]1O[C@@H]1C(=O)NC1Cc2ccccc2C1)C(=O)NC1c2ccccc2-c2ccccc21 [Example 10, hydrochloride] | nM | 870

* * *

Biological target: cathepsin H (Homo sapiens, UniProt P09668)
Sequence (P09668 98-335): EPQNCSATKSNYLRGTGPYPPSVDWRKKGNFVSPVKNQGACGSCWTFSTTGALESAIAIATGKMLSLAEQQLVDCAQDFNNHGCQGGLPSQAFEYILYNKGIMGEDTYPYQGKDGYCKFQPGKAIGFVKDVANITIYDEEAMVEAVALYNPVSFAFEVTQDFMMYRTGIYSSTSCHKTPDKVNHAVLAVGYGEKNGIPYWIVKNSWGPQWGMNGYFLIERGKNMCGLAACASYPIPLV
pIC50: −log10 of the molar value. Counter-ions that a name gives are not always drawn.

COMPOUND | TARGET_DESC | LT_GT_EQ | pIC50
NCCCC[C@H](NC(=O)[C@H]1O[C@@H]1C(=O)N[C@@H](Cc1ccccc1)C(=O)NCc1ccccc1)C(=O)Nc1cccc2ccccc12 [Example 26, hydrochloride] | cathepsin H (Homo sapiens, UniProt P09668) | = | 5.49
NCCCC[C@H](NC(=O)[C@H]1O[C@@H]1C(=O)Nc1cccc2ccccc12)C(=O)Nc1cccc2ccccc12 [Example 30, hydrochloride] | cathepsin H (Homo sapiens, UniProt P09668) | = | 5.22
NCCCC[C@H](NC(=O)[C@H]1O[C@@H]1C(=O)NCCc1ccccc1)C(=O)Nc1cccc2ccccc12 [Example 2, hydrochloride] | cathepsin H (Homo sapiens, UniProt P09668) | < | 5.00
CC(=O)NCCCC[C@H](NC(=O)[C@H]1O[C@@H]1C(=O)N[C@@H](Cc1ccccc1)C(=O)NCCc1ccccc1)C(=O)Nc1cccc2ccccc12 | cathepsin H (Homo sapiens, UniProt P09668) | = | 5.32
NCCCC[C@H](NC(=O)[C@H]1O[C@@H]1C(=O)N[C@@H](Cc1ccccc1)C(N)=O)C(=O)Nc1cccc2ccccc12 [Example 14, hydrochloride] | cathepsin H (Homo sapiens, UniProt P09668) | < | 5.00

* * *

Below are compounds with their log10 IC50 as measured on UniProtKB P07154.
Counter-ions that a name gives are not always drawn.
ASSAY_READOUT: log10 IC50 (log10 of the value in nM)

COMPOUND | RESULT_VALUE
COc1ccccc1NC(=O)[C@H](CCCCN)NC(=O)[C@H]1O[C@@H]1C(=O)N[C@@H](Cc1ccccc1)C(N)=O [Example 37, hydrochloride] | 0.81
NCCCCCCCCNC(=O)[C@H](Cc1ccccc1)NC(=O)[C@H]1O[C@@H]1C(=O)O [Preparation Example 61, reference compound] | -0.09
COc1ccccc1NC(=O)[C@H](CCCCN)NC(=O)[C@H]1O[C@@H]1C(=O)N[C@@H](Cc1ccccc1)C(=O)NCCc1ccccc1 [Example 39, hydrochloride] | 0.20
NCCCC[C@H](NC(=O)[C@H]1O[C@@H]1C(=O)N[C@@H](Cc1ccccc1)C(N)=O)C(=O)N(Cc1ccccc1)Cc1ccccc1 [Example 16, hydrochloride] | 2.34
CC(C)NC(=O)[C@H](Cc1ccccc1)NC(=O)[C@H]1O[C@@H]1C(=O)N[C@@H](CCCCN)C(=O)Nc1ccccc1 [Example 61, hydrochloride] | 0.45

* * *

Measured IC50 (UniProtKB P07154)
Where a name gives a salt, the structure may show the parent alone.
ASSAY_READOUT: IC50 (nM)

COMPOUND | UNIT | RESULT_VALUE
NCCCC[C@H](NC(=O)[C@H]1O[C@@H]1C(=O)N[C@@H](Cc1ccccc1)C(=O)Nc1ccccc1)C(=O)Nc1cccc2ccccc12 [Example 57, hydrochloride] | nM | 9
NCCCC[C@H](NC(=O)[C@H]1O[C@@H]1C(=O)Nc1cccc2ccccc12)C(=O)Nc1cccc2ccccc12 [Example 30, hydrochloride] | nM | 72
NCCCC[C@H](NC(=O)[C@H]1O[C@@H]1C(=O)NC1Cc2ccccc2C1)C(=O)Nc1cccc2ccccc12 [Example 12, hydrochloride] | nM | 40
CC(=O)NCCCC[C@H](NC(=O)[C@H]1O[C@@H]1C(=O)N[C@@H](Cc1ccccc1)C(N)=O)C(=O)Nc1cccc2ccccc12 [Example 31] | nM | 7
NCCCC[C@H](NC(=O)[C@H]1O[C@@H]1C(=O)N[C@H](Cc1ccccc1)C(=O)NCCc1ccccc1)C(=O)Nc1cccc2ccccc12 [Example 53, hydrochloride] | nM | 90
NCCCC[C@H](NC(=O)[C@H]1O[C@@H]1C(=O)N[C@@H](Cc1ccccc1)C(=O)NCCc1ccccc1)C(=O)Nc1ccccc1C(F)(F)F [Example 43, hydrochloride] | nM | 3
CNC(=O)[C@H](Cc1ccccc1)NC(=O)[C@H]1O[C@@H]1C(=O)N[C@@H](CCCCN)C(=O)Nc1ccccc1 [Example 63, hydrochloride] | nM | 5.2
NCCCC[C@H](NC(=O)[C@H]1O[C@@H]1C(=O)N[C@@H](Cc1ccccc1)C(=O)NCCc1ccccc1)C(=O)N1CCc2ccccc21 [Example 47, hydrochloride] | nM | 0.1
CN(C)C(=O)[C@H](Cc1ccccc1)NC(=O)[C@H]1O[C@@H]1C(=O)N[C@@H](CCCCN)C(=O)Nc1ccccc1 [Example 65, hydrochloride] | nM | 30
NCCCC[C@H](NC(=O)[C@H]1O[C@@H]1C(=O)NCCc1ccccc1)C(=O)NC1c2ccccc2-c2ccccc21 [Example 6, hydrochloride] | nM | 960
CCCNC(=O)[C@H](Cc1ccccc1)NC(=O)[C@H]1O[C@@H]1C(=O)N[C@@H](CCCCN)C(=O)Nc1ccccc1 [Example 59, hydrochloride] | nM | 2.7
NCCCC[C@H](NC(=O)[C@H]1O[C@@H]1C(=O)N[C@@H](Cc1ccccc1)C(=O)NCCc1ccccc1)C(=O)Nc1ccc(Cl)c2ccccc12 [Example 49, hydrochloride] | nM | 1.7
